Where these numbers come from: PubChem BioAssay (Tox21)

assayExplanation: qHTS assay for small molecule disruptors of the mitochondrial membrane potential - cell viability (AID 720634); note: nearly all actives have a fitted effect of over 20% in size
conditionSummary: HepG2 viability, ATP luminescence (CellTiter-Glo), 1 h; series mostly up to 83.2 µM
Results filed as inconclusive are left out. The source made the active and inactive calls. Calls come from the whole dose curve.
The categories you may choose from are active, inactive

QUERY: What is the recorded call for this compound in the test? `CC1(C)[C@@H](O)CC[C@]2(C)[C@H]3C(=O)C=C4[C@@H]5C[C@@](C)(C(=O)O)CC[C@]5(C)CC[C@@]4(C)[C@]3(C)CC[C@@H]12`
RESULT: inactive

QUERY: Write down the call the test reported for this compound. Item: `C#C[C@]1(OC(C)=O)CC[C@H]2[C@@H]3CCC4=C/C(=N/O)CC[C@@H]4[C@H]3CC[C@@]21CC`
RESULT: active

QUERY: Record lookup: outcome of this test for CCN1C(=O)c2ccccc2C1Nc1ccc(OCCN2CCCCC2)cc1 (stereo not given) ?
RESULT: inactive

QUERY: Assay result, entry `C/C=C/C=C/COC(=O)C(C)C` — outcome?
RESULT: inactive

QUERY: Dear colleague, could you share the recorded outcome for `Cc1nc(-c2ccc(Cl)cc2)oc1COC(C)(C)C(=O)O` when you have a moment?
RESULT: inactive

QUERY: For CCOC(=O)c1ccc(C2CCC(NC[C@H](O)COc3ccc(O)c(NS(C)(=O)=O)c3)CC2)cc1 (stereo not given in full) , what call appears in the results of this test?
RESULT: inactive

QUERY: Tell me the assay call for CC(C(=O)O)c1ccc2c(c1)[nH]c1ccc(Cl)cc12 (stereo not given) please.
RESULT: inactive

QUERY: Hello, I am checking results. What call was entered for `CNc1ccc([N+](=O)[O-])cc1` ?
RESULT: inactive

QUERY: Write down the call the test reported for this compound. Item: CCC(C)(CCC(C)C)C(=O)[O][Sn]([CH3])([CH3])[O]C(=O)C(C)(CC)CCC(C)C (stereo not given)
RESULT: inactive

QUERY: # fetch the recorded call for `O=C1NC(=O)[C@@H]2CC=CC[C@H]12` here
RESULT: inactive
